measurement name: melting point

1) COc1ccnc(C(=O)N[C@H]2COC(=O)[C@H](Cc3ccc(F)cc3F)[C@@H](OC(=O)C(C)C)[C@H](C)OC2=O)c1O ... 184 to 185 °C
2) COc1ccnc(C(=O)N[C@H]2COC(=O)[C@H](Cc3ccc(F)cc3)[C@@H](OC(=O)C(C)C)[C@H](C)OC2=O)c1O ... 208 to 210 °C
3) COc1ccnc(C(=O)N[C@H]2COC(=O)[C@H](CCOC(=O)C3CC3)[C@@H](OC(=O)C(C)C)[C@H](C)OC2=O)c1OCOC(=O)C(C)C ... 68 to 69 °C
4) COc1ccnc(C(=O)N[C@H]2COC(=O)[C@H](CCOS(C)(=O)=O)[C@@H](OC(=O)C(C)C)[C@H](C)OC2=O)c1O ... 153 to 155 °C

Asked: Which melting point value belongs to `CC[C@H]1C(=O)OC[C@H](NC(=O)c2nccc(OC)c2OC(C)=O)C(=O)O[C@@H](C)[C@@H]1OC(=O)C(C)C` ?
Given back: 158 to 161 °C

Asked: Which melting point value belongs to `COc1ccnc(C(=O)N[C@H]2COC(=O)[C@H](CCOC(=O)c3ccc(C(F)(F)F)cc3)[C@@H](OC(=O)C(C)C)[C@H](C)OC2=O)c1O` ?
Given back: 160 to 162 °C

Asked: Which melting point value belongs to `COc1ccnc(C(=O)N[C@H]2COC(=O)[C@H](CCOC(=O)c3ccccc3)[C@@H](OC(=O)C(C)C)[C@H](C)OC2=O)c1O` ?
Given back: 172 to 174 °C

Asked: Which melting point value belongs to `COc1ccnc(C(=O)N[C@H]2COC(=O)[C@H](CCc3cccnc3)[C@@H](OC(=O)C(C)C)[C@H](C)OC2=O)c1O` ?
Given back: 169 to 170 °C

Asked: Which melting point value belongs to `COc1ccnc(C(=O)N[C@H]2COC(=O)[C@H](Cc3cccc(-c4ccccc4)c3)[C@@H](OC(=O)C(C)C)[C@H](C)OC2=O)c1OCOC(=O)C(C)C` ?
Given back: 55 to 68 °C

Asked: Which melting point value belongs to `COc1ccnc(C(=O)N[C@H]2COC(=O)[C@H](CCn3cc(-c4cccc(Cl)c4)nn3)[C@@H](OC(=O)C(C)C)[C@H](C)OC2=O)c1O` ?
Given back: 222 to 224 °C

Asked: Which melting point value belongs to `COc1ccnc(C(=O)N[C@H]2COC(=O)[C@H](Cc3cccc(C(F)(F)F)c3)[C@@H](OC(=O)C(C)C)[C@H](C)OC2=O)c1OCOC(=O)C(C)C` ?
Given back: 100 to 103 °C

Asked: Which melting point value belongs to `COc1ccnc(C(=O)N[C@H]2COC(=O)[C@H](Cc3cccc(C(F)(F)F)c3)[C@@H](OC(=O)C(C)C)[C@H](C)OC2=O)c1O` ?
Given back: 188 to 190 °C
